Listing of entries alongside the reported inhibition at 50 µg/mL.
Test system: H37Rv strain of Mycobacterium tuberculosis
Assay Text: microbe, parasite or virus in culture
Assay type: cell-based
Assay Context: Mycobacterium tuberculosis, H37RV, 50 µg/ml; M. Tb H37Rv; LRP assay; read-out: % Inhibition ± SD

| Compound | inhibition at 50 µg/mL (%) |
| --- | --- |
| C#CCOc1ccc(Br)cc1/C=N/Nc1nc(-c2ccc(C)cc2)cs1 | 54.9 |
| C#CCOc1ccccc1/C=N/Nc1nc(-c2ccccc2)cs1 | 51.7 |
| C#CCOc1ccc(/C=N/Nc2nc(-c3ccc(C)cc3)cs2)cc1OCC | 8.72 |
| C#CCOc1ccc(Br)cc1/C=N/Nc1nc(-c2ccc(F)cc2)cs1 | 50.7 |
| C#CCOc1ccccc1/C=N/Nc1nc(-c2ccc(F)cc2)cs1 | 38 |
| C#CCOc1ccc(/C=N/Nc2nc(-c3ccc(Br)cc3)cs2)cc1OCC | 7.35 |
| C#CCOc1ccccc1/C=N/Nc1nc(-c2ccc(C#N)cc2)cs1 | 54.3 |
| C#CCOc1ccc(Br)cc1/C=N/Nc1nc(-c2ccc(Br)cc2)cs1 | 27.1 |
| C#CCOc1ccc(/C=N/Nc2nc(-c3ccc(OC)cc3)cs2)cc1OCC | 5.64 |
| C#CCOc1ccc(/C=N/Nc2nc(-c3ccc(F)cc3)cs2)cc1OCC | 2.06 |
| C#CCOc1ccc(C=O)cc1OCC | 7.73 |
| C#CCOc1ccc(Br)cc1/C=N/Nc1nc(-c2ccc(C#N)cc2)cs1 | 43.7 |

###

Listing of entries alongside the reported inhibition at 50 µg/mL.
System: H37Rv strain of Mycobacterium tuberculosis
Assay Text: microbe, parasite or virus in culture
Assay type: cell-based
Assay Context: Mycobacterium tuberculosis, H37RV, 50 µg/ml; M. Tb H37Rv; LRP assay; read-out: % Inhibition ± SD

| Compound | inhibition at 50 µg/mL / % |
| --- | --- |
| C#CCOc1ccccc1/C=N/Nc1nc(-c2ccc(OC)cc2)cs1 | 10.3 |
| C#CCOc1ccccc1/C=N/Nc1nc(-c2ccc(Br)cc2)cs1 | 49.1 |
| C#CCOc1ccc(Br)cc1/C=N/NC(N)=S | 51.2 |
| C#CCOc1ccccc1/C=N/Nc1nc(-c2ccc([N+](=O)[O-])cc2)cs1 | 29.1 |
| C#CCOc1ccc(Br)cc1/C=N/Nc1nc(-c2ccc(Cl)cc2)cs1 | 38.1 |
| C#CCOc1ccccc1/C=N/NC(N)=S | 46.8 |
| C#CCOc1ccc(/C=N/Nc2nc(-c3ccccc3)cs2)cc1OCC | 40.5 |
| C#CCOc1ccc(Br)cc1/C=N/Nc1nc(-c2ccc(OC)cc2)cs1 | 43.7 |
| C#CCOc1ccc(/C=N/Nc2nc(-c3ccc([N+](=O)[O-])cc3)cs2)cc1OCC | 48.7 |

###

Listing of entries alongside the reported melting point.

| Compound | melting point |
| --- | --- |
| C#CCOc1ccc(Br)cc1C=O | 92 to 93 °C |
| C#CCOc1ccc(/C=N/Nc2nc(-c3ccc(F)cc3)cs2)cc1OCC | 152 to 154 °C |
| C#CCOc1ccc(/C=N/Nc2nc(-c3ccc(C)cc3)cs2)cc1OCC | 166 to 168 °C |
| C#CCOc1ccccc1/C=N/Nc1nc(-c2ccc(C#N)cc2)cs1 | 150 to 152 °C |
| C#CCOc1ccc(Br)cc1/C=N/Nc1nc(-c2ccccc2)cs1 | 195 to 197 °C |

###

Tested on: H37Rv strain of Mycobacterium tuberculosis
Assay Text: microbe, parasite or virus in culture
Assay type: cell-based
Assay Context: Mycobacterium tuberculosis, H37RV, 50 µg/ml; M. Tb H37Rv; LRP assay; read-out: % Inhibition ± SD
Category key, based on recorded inhibition at 50 µg/mL: bucket 1 (below 40%), bucket 2 (40% to below 50%), bucket 3 (50% or more)

| Compound | Test System | Category |
| --- | --- | --- |
| C#CCOc1ccc(/C=N/Nc2nc(-c3ccc(Cl)c(Cl)c3)cs2)cc1OCC | H37Rv strain of Mycobacterium tuberculosis | bucket 1 |
| C#CCOc1ccc(Br)cc1/C=N/Nc1nc(-c2ccccc2)cs1 | H37Rv strain of Mycobacterium tuberculosis | bucket 3 |
| C#CCOc1ccc(Br)cc1/C=N/Nc1nc(-c2ccc(Cl)c(Cl)c2)cs1 | H37Rv strain of Mycobacterium tuberculosis | bucket 2 |
| C#CCOc1ccccc1/C=N/Nc1nc(-c2ccc(Cl)c(Cl)c2)cs1 | H37Rv strain of Mycobacterium tuberculosis | bucket 3 |
| C#CCOc1ccc(/C=N/Nc2nc(-c3ccc(Cl)cc3)cs2)cc1OCC | H37Rv strain of Mycobacterium tuberculosis | bucket 1 |
| C#CCOc1ccccc1/C=N/Nc1nc(-c2ccc(C)cc2)cs1 | H37Rv strain of Mycobacterium tuberculosis | bucket 1 |

###

Assay Text: in vitro
Format: cell-based
Assay Context: human

| Compound | Result Qualifier | viability at 48 h, 100 μg ml^−1 [%] |
| --- | --- | --- |
| C#CCOc1ccccc1/C=N/Nc1nc(-c2ccc(C#N)cc2)cs1 | > | 75 |
| C#CCOc1ccccc1/C=N/Nc1nc(-c2ccccc2)cs1 | > | 75 |
| C#CCOc1ccc(Br)cc1/C=N/Nc1nc(-c2ccc(F)cc2)cs1 | = | 70 |
| C#CCOc1ccc(Br)cc1/C=N/Nc1nc(-c2ccc(C)cc2)cs1 | = | 70 |

###

Property Name: melting point

| Compound | Property Name | Result |
| --- | --- | --- |
| C#CCOc1ccc(/C=N/Nc2nc(-c3ccc([N+](=O)[O-])cc3)cs2)cc1OCC | melting point | 191 to 193 °C |
| C#CCOc1ccccc1/C=N/Nc1nc(-c2ccc([N+](=O)[O-])cc2)cs1 | melting point | 185 to 187 °C |
| C#CCOc1ccc(Br)cc1/C=N/Nc1nc(-c2ccc(OC)cc2)cs1 | melting point | 184 to 187 °C |
| C#CCOc1ccc(Br)cc1/C=N/Nc1nc(-c2ccc(Br)cc2)cs1 | melting point | 208 to 210 °C |
| C#CCOc1ccc(/C=N/Nc2nc(-c3ccc(OC)cc3)cs2)cc1OCC | melting point | 183 to 185 °C |
| C#CCOc1ccc(Br)cc1/C=N/Nc1nc(-c2ccc(C)cc2)cs1 | melting point | 191 to 193 °C |
| C#CCOc1ccc(Br)cc1/C=N/Nc1nc(-c2ccc(Cl)cc2)cs1 | melting point | 209 to 211 °C |
| C#CCOc1ccccc1/C=N/Nc1nc(-c2ccc(Br)cc2)cs1 | melting point | 144 to 146 °C |
| C#CCOc1ccccc1/C=N/Nc1nc(-c2ccc(F)cc2)cs1 | melting point | 180 to 182 °C |
| C#CCOc1ccc(C=O)cc1OCC | melting point | 74 to 75 °C |
| C#CCOc1ccccc1/C=N/Nc1nc(-c2ccc(Cl)cc2)cs1 | melting point | 160 to 164 °C |
| C#CCOc1ccc(Br)cc1/C=N/Nc1nc(-c2ccc(Cl)c(Cl)c2)cs1 | melting point | 213 to 215 °C |
| C#CCOc1ccc(Br)cc1/C=N/Nc1nc(-c2ccc(C#N)cc2)cs1 | melting point | 199 to 201 °C |
| C#CCOc1ccccc1/C=N/Nc1nc(-c2ccccc2)cs1 | melting point | 183 to 185 °C |
| C#CCOc1ccc(/C=N/Nc2nc(-c3ccc(Cl)c(Cl)c3)cs2)cc1OCC | melting point | 153 to 155 °C |
| C#CCOc1ccc(Br)cc1/C=N/Nc1nc(-c2ccc(F)cc2)cs1 | melting point | 207 to 209 °C |
| C#CCOc1ccccc1/C=N/NC(N)=S | melting point | 174 to 176 °C |
| C#CCOc1ccc(Br)cc1/C=N/NC(N)=S | melting point | 204 to 206 °C |
| C#CCOc1ccccc1/C=N/Nc1nc(-c2ccc(OC)cc2)cs1 | melting point | 181 to 183 °C |

###

Assay Text: in vitro
Format: cell-based
Assay Context: human
Listing of entries alongside the reported viability at 48 h, 100 μg ml^−1.

| Compound | Result Qualifier | viability at 48 h, 100 μg ml^−1 (%) |
| --- | --- | --- |
| C#CCOc1ccccc1/C=N/Nc1nc(-c2ccc(Cl)cc2)cs1 | > | 75 |
| C#CCOc1ccc(Br)cc1/C=N/Nc1nc(-c2ccccc2)cs1 | > | 75 |
| C#CCOc1ccc(Br)cc1/C=N/NC(N)=S | = | 70 |
| C#CCOc1ccccc1/C=N/Nc1nc(-c2ccc(Cl)c(Cl)c2)cs1 | > | 75 |
| C#CCOc1ccc(/C=N/Nc2nc(-c3ccc(C#N)cc3)cs2)cc1OCC | = | 70 |
